- Tested on: SF-539
- assayMethodText: Antiproliferative activity against human SF539 cells after 48 hrs
- Assay type: functional
- conditionDetails: SF-539, 48 h, read-out: Log TGI (converted)
quantityName: TGI (µM)

{"itemSmiles": "C[C@@H](NC(=O)CCCCCCCCCCCCCCC[n+]1ccccc1)[C@@H](O)c1ccccc1.[Br-]", "quantityName": "TGI", "testValue": 5.5}
{"itemSmiles": "CCCCCCCCCCCCCCN[C@H](C)[C@@H](O)c1ccccc1.Cl", "quantityName": "TGI", "testValue": 2.69}
{"itemSmiles": "CCCCCCCCCCCCCCN[C@H](CO)[C@H](O)c1ccc([N+](=O)[O-])cc1.Cl", "quantityName": "TGI", "testValue": 3.16}
{"itemSmiles": "CCCCCCCCCCCCCCN[C@H](CO)[C@H](O)c1ccccc1", "quantityName": "TGI", "testValue": 3.09}
{"itemSmiles": "CCCCCCCCCCCCCCN[C@@H](C)[C@H](O)c1ccccc1", "quantityName": "TGI", "testValue": 3.39}
{"itemSmiles": "C[C@H](NC(=O)CCCCCCCCCCCCCCC[n+]1ccccc1)[C@H](O)c1ccccc1.[Br-]", "quantityName": "TGI", "testValue": 14.1}
{"itemSmiles": "CCCCCCCCCCCCCCN[C@@H](CO)Cc1ccccc1", "quantityName": "TGI", "testValue": 3.39}
